Hello, the source for this data is PubChem BioAssay (NCI), in case you need it.

Test system: HOP-62 NSCLC
procedure_summary: NCI-60 one-dose screen, 48 h (100 = growth as untreated, 0 = no growth, -100 = all killed)
experimental_setup: 10 µM unless noted
Compounds without any hit were thinned out: in the full panel of roughly 83,000, 20% have a hit.
Group membership follows growth per the scheme 1 = under 40%, 2 = from 40% up to 80%, 3 = 80% and over

Field: example entries. Status: answers known.
Prompt: Lab note: which band did `C#Cc1cccc(Nc2nc(Cl)nc3cc(NC(=O)CCl)ccc23)c1` land in?
Response: 1

Prompt: Lab note: which band did CC1=C([Se]CC(OC(=O)[C@@H](CO)NC(=O)OC(C)(C)C)C(=O)NCCCCCC(=O)OCc2ccccc2)C(=O)c2ccccc2C1=O (some centres undefined) land in?
Response: 1

Prompt: Lab note: which band did `O=C(Nc1ccc(Oc2cccc(F)c2)c(Cl)c1)c1cnccn1` land in?
Response: 2

Next:
Prompt: Lab note: which band did `O=C1c2ccccc2C(=O)c2cc(Cn3c[n+](Cc4ccc5ccccc5c4)c4ccccc43)ccc21` land in?
Response: 2

###

Provide the reported growth of each item.
System: SF-539 CNS
procedure_summary: NCI-60 one-dose screen, 48 h (100 = growth as untreated, 0 = no growth, -100 = all killed)
experimental_setup: 10 µM unless noted
About 83,000 compounds went through this panel and 20% of them were active in at least one assay; those are over-represented in the sample as a whole.
One number for each entry, in %.

Some compounds with recorded growth:
Prompt: Lookup: growth / SF-539 CNS / `CCN1CCN(C(=O)[C@]23CC[C@@H](C)[C@H](C)[C@@H]2C2=CC[C@@H]4[C@@]5(C)C/C(=C/c6ccncc6)C(=O)C(C)(C)[C@@H]5CC[C@@]4(C)[C@]2(C)CC3)CC1`
Response: -80.2

Prompt: Lookup: growth / SF-539 CNS / `O=C1NC(=O)C(=Cc2cc(-c3ccc(Cl)cc3)n(-c3ccccc3)n2)C(=O)N1`
Response: 96.5

Prompt: Lookup: growth / SF-539 CNS / `CN1CCN(c2ccc(Nc3ncc4[nH]c(=O)n(Cc5ccccc5N)c4n3)cc2)CC1`
Response: 80.9

Here are 6 compounds. What values of growth were reported for them?
1. CCOC(=O)c1cc(C(=O)c2cc(OC)cc(OC)c2)n2ccccc12
2. CC1=C2[C@@H](CC1)[C@]1(C)O[C@@](C(C)C)(C[C@H]1OC(=O)CO)[C@H]2OC(=O)CCCc1ccccc1
3. Cc1ccc(C(=O)Nc2ccc(CN3CCN(C)CC3)c(C(F)(F)F)c2)cc1C#Cc1cnc(N)c2ccccc12
4. COc1cccc(C2C(C#N)=C(N)Oc3c2ccc2ccccc32)c1 (centres undefined)
5. COc1cc(/C=C2\CN(S(=O)(=O)c3ccc(C)cc3)C/C(=C\c3cc(CN4CCCC4)c(O)c(OC)c3)C2=O)cc(CN2CCCC2)c1O
6. O=C(NS(=O)(=O)c1ccccc1)n1cc(-c2ccncc2)c(-c2cc(O)cc(Cl)c2)n1

Response:
1. 44.8
2. 96.6
3. -84.8
4. -12
5. -55.6
6. 86.5

###

Test system: SR leukemia
procedure_summary: NCI-60 one-dose screen, 48 h (100 = growth as untreated, 0 = no growth, -100 = all killed)
experimental_setup: 10 µM unless noted
Compounds without any hit were thinned out: in the full panel of roughly 83,000, 20% have a hit. The source made the active and inactive calls. The calls were made as follows: active = growth percent below 10; inactive = the rest.
Provide the reported growth of each item.

Prompt: Entry `C[C@@H]1N=C(c2ccc(Cl)cc2Cl)Nc2nc3ccccn3c2C1=O` has what growth?
Response: 33% (inactive)

Prompt: Entry `CN1CCN(c2ccc(Nc3ncc4[nH]c(=O)n(Cc5ccccc5N)c4n3)cc2)CC1` has what growth?
Response: 91% (inactive)

Prompt: Entry `Cc1c(CC(=O)Nc2ccccc2)nnn1-c1ccccc1` has what growth?
Response: 103% (inactive)

Prompt: Entry `COC(=O)c1sc(-c2ccc(C)cc2)cc1O` has what growth?
Response: 81.9% (inactive)

Prompt: Entry CC(C)=CCC[C@](C)(O)C1CC[C@]2(C)[C@@H]1CC[C@@H]1[C@@]3(C)CC/C(=N\OCCC#N)C(C)(C)[C@@H]3CC[C@]12C (some centres undefined) has what growth?
Response: 61.6% (inactive)

Here are 4 compounds. What values of growth were reported for them?
1. COc1ccc(-c2ccc(-c3ccc(C(=N)N)nc3)s2)cc1
2. CN(CCNc1ccc(C(=N)N)cc1)c1ccc(C(=N)N)cc1
3. COc1cc(/C=C2\C(=O)N(CCOc3cc(O)c4c(=O)cc(-c5ccccc5)oc4c3)c3ccccc32)cc(OC)c1O
4. COc1ccc(-c2cc(-c3ccc(Nc4nc(Nc5ccc(Cl)cc5)nc(Nc5ccc(Cl)cc5)n4)cc3)no2)cc1

Response:
1. 0.29% (active)
2. 66.7% (inactive)
3. 39% (inactive)
4. 2.43% (active)

###

Tested on: MALME-3M melanoma
procedure_summary: NCI-60 one-dose screen, 48 h (100 = growth as untreated, 0 = no growth, -100 = all killed)
experimental_setup: 10 µM unless noted
Protocol: Cells are grown in 96 well plates and exposed to the test compound for 48 hours. Compounds are tested at a single concentration, which is 10^-5 M for most compounds. The reported endpoint is percent growth (GI% or GIPRCNT), where numbers from 0 - 100% represent growth inhibition, and numbers from -100% - 0 represent cell death. For example, a value of 40 represents 60% growth inhibition. A value of 0 means no net growth occurred over the course of the experiment. […]
Compounds without any hit were thinned out: in the full panel of roughly 83,000, 20% have a hit.
assay_endpoint: growth (%)
Answers are plain numbers, in %.

Some molecules with recorded growth:
Prompt: Lookup: growth / MALME-3M melanoma / `COc1ccc(C2=C/C(=C\c3ccccc3O)C(=O)N2Cc2ccccc2)cc1`
Response: 63.4

Prompt: Lookup: growth / MALME-3M melanoma / `CCOC(=O)/C(=C/c1ccc([N+](=O)[O-])cc1)C(=O)c1ccccc1`
Response: 32.4

Prompt: Lookup: growth / MALME-3M melanoma / CCOC(=O)CC1CSC(N/N=C/c2ccc(O)cc2)=N1 (stereo not given)
Response: 97

Prompt: Lookup: growth / MALME-3M melanoma / `CO[C@]12C=C/C(=C(/C(=O)OCc3cccnc3)C(=O)CCCCCCCC[C@]3(OC)C=C/C(=C(/C(=O)OCc4cccnc4)C(=O)CCCCCCCC1)O3)O2`
Response: -38.4

Prompt: Lookup: growth / MALME-3M melanoma / `C[C@@H]1N=C(c2ccc(Cl)cc2Cl)Nc2nc3ccccn3c2C1=O`
Response: 43.7

Here are 5 molecules. What values of growth were reported for them?
1. CC(C)=CC(=O)C1C(=O)c2ccccc2C1=O
2. CCN1CCN(c2cc(C(=O)Nc3cccc(Nc4ccc5c(OC)cccc5n4)c3)cc(C(F)(F)F)c2)CC1
3. Cc1[nH]c(C(=O)Nc2ccccc2OC2CCNC2)c(Cl)c1Cl (stereo not given)
4. CCOC(=O)c1c2c(n3ccc(NC(=O)CCN4CCCC4)cc13)C(=O)c1ncccc1C2=O
5. CC(Cc1cccc2ccccc12)C(N)=O (stereo not given)

Response:
1. 83.6
2. -59.6
3. 97.5
4. 66.3
5. 111

###

Test system: COLO 205 colon
procedure_summary: NCI-60 one-dose screen, 48 h (100 = growth as untreated, 0 = no growth, -100 = all killed)
experimental_setup: 10 µM unless noted
Compounds without any hit were thinned out: in the full panel of roughly 83,000, 20% have a hit.
Provide the reported growth of each item.
Numbers only, in %.

Prompt: Entry `O=C(Nc1ccc(Cl)cc1)C1=NCCCCN1` has what growth?
Response: 99.6

Prompt: Entry `Nc1ncc(-c2ccc3ncnc(N4CCc5ccc(Cl)cc54)c3c2)cn1` has what growth?
Response: -25.8

Prompt: Entry CC(C)=CCC[C@](C)(O)C1CC[C@]2(C)[C@@H]1CC[C@@H]1[C@@]3(C)CC/C(=N\OCCC#N)C(C)(C)[C@@H]3CC[C@]12C (stereo not given in full) has what growth?
Response: 83.9

Prompt: Entry `C=C(C[n+]1ccccc1)[C@@H]1CC[C@]2(C(=O)OC)CC[C@]3(C)[C@H](CC[C@@H]4[C@@]5(C)CCC(=O)C(C)(C)[C@@H]5CC[C@]43C)[C@@H]12` has what growth?
Response: 56.1

Prompt: Entry COc1ccc(C(c2cc(OC)c(OC)c(OC)c2)n2cncn2)cc1O (stereo not given) has what growth?
Response: -1.65

Prompt: Entry `CC1(C)CC[C@]2(CO)CC[C@]3(C)C(=CC[C@@H]4[C@@]5(C)CCNCC(C)(C)[C@@H]5CC[C@]43C)[C@@H]2C1` has what growth?
Response: -44.1

Prompt: Entry `COc1ccc(C(=O)/C=C/c2ccc(C)cc2)cc1S(N)(=O)=O` has what growth?
Response: 95.8

Prompt: Entry `Cc1ccc2c(n1)C[C@H](C(C)(C)O)CC[C@H]2C` has what growth?
Response: 111

Prompt: Entry `Cc1ccc(-c2nnc(SCc3nc(N)nc(Nc4ccccc4F)n3)n2-c2ccccc2)cc1` has what growth?
Response: 101

Prompt: Entry `Cc1csc(Nc2nc(-c3cccc(Cl)c3)nc(C(Cl)(Cl)Cl)n2)n1` has what growth?
Response: -38.6

Here are 4 molecules. What values of growth were reported for them?
1. Cc1cc(C(=O)Nc2cc(Nc3ncccc3-c3ncnc4nc[nH]c34)ccc2F)cc(C(C)(C)C#N)c1
2. COc1ccc(S(=O)(=O)Oc2ccc(-c3sc4cc(OS(=O)(=O)c5ccc(OC)cc5)ccc4c3C(=O)c3ccc(OCCN4CCCCC4)cc3)cc2)cc1
3. COc1cc(CNC(=O)CCCC/C=C/C(C)C)ccc1OCc1cn(-c2ccc(C(F)(F)F)cc2)nn1
4. Nc1ccc(N)c2c1C(=O)c1cccc([N+](=O)[O-])c1C2=O

Response:
1: 13.3; 2: 109; 3: 72.6; 4: 66.3

Here are 6 molecules. What values of growth were reported for them?
1. O=c1c2cccc3c(N4CCOCC4)ccc(c32)c2nc3ccccc3n12
2. N#Cc1c(-c2ccc(F)cc2)cc(-c2cccc(Cl)c2)[nH]c1=O
3. CC1=NC(=S)NC(c2ccccc2)/C1=C1/CC(c2ccccc2O)NN1 (stereo not given)
4. N#C/C(=C/C=C/c1ccccc1)S(=O)c1ccccc1 (stereo not given)
5. COc1ccc(Nc2nccc(Nc3ccc4[nH]ncc4c3)n2)cc1
6. O=C(NS(=O)(=O)c1ccccc1)n1cc(-c2ccncc2)c(-c2cc(O)cc(Cl)c2)n1

Response:
1: 87.6; 2: 116; 3: 105; 4: -56.4; 5: 26.4; 6: 114
